B1: NLV2 TCR alpha chain (CDR3α only) (parent)
chain: AGPMKTSYDKVI

Variants of: B1
Assay: T-Switch: Jurkat TCRβ−/− cells expressing a CDR3 saturation-mutagenesis library, stained with two peptide-HLA-A*02:01 tetramers (original and novel peptide) plus anti-CD3, FACS-sorted into four gates, gDNA sequenced
Settings: with both tetramers (double-negative gate, binds neither): HLA-A*02:01 with … and with …, tetramers 1 µg/mL, 30 min on ice, SP, DP and SW gates expanded about 10 days between rounds ('two to three rounds of selection' in the Methods), gate DN: OPPOSITE: higher = more of the variant in the gate that binds neither peptide = LESS binding (or no expression; inferred). Fold enrichment of the CDR3 variant in one FACS gate of a two-tetram, unresolved parent, parent is a CDR3 fragment, scale: fold enrichment, numbering: sequential-on-construct, sequence starts at 1
readout name: enrichment

mutation name: […] (CDR3 as printed); K10R derived by comparing it with the table's wild-type CDR3 AGPMKTSYDKVI
observed value: 0.909
--
mutation name: […] (CDR3 as printed); A1P derived by comparing it with the table's wild-type CDR3 AGPMKTSYDKVI
observed value: 0.883
--
mutation name: […] (CDR3 as printed); T6C derived by comparing it with the table's wild-type CDR3 AGPMKTSYDKVI
observed value: 0.924
--
mutation name: […] (CDR3 as printed); V11D derived by comparing it with the table's wild-type CDR3 AGPMKTSYDKVI
observed value: 0.904
--
mutation name: […] (CDR3 as printed); S7W derived by comparing it with the table's wild-type CDR3 AGPMKTSYDKVI
observed value: 0.807
--
mutation name: […] (CDR3 as printed); M4E derived by comparing it with the table's wild-type CDR3 AGPMKTSYDKVI
observed value: 0.637
--
mutation name: […] (CDR3 as printed); Y8L derived by comparing it with the table's wild-type CDR3 AGPMKTSYDKVI
observed value: 1
--
mutation name: […] (CDR3 as printed); D9S derived by comparing it with the table's wild-type CDR3 AGPMKTSYDKVI
observed value: 1.04
--
mutation name: […] (CDR3 as printed); P3Q derived by comparing it with the table's wild-type CDR3 AGPMKTSYDKVI
observed value: 1.16
--
mutation name: […] (CDR3 as printed); G2W derived by comparing it with the table's wild-type CDR3 AGPMKTSYDKVI
observed value: 1.05
--
mutation name: […] (CDR3 as printed); D9W derived by comparing it with the table's wild-type CDR3 AGPMKTSYDKVI
observed value: 1.34
--
mutation name: […] (CDR3 as printed); K5I derived by comparing it with the table's wild-type CDR3 AGPMKTSYDKVI
observed value: 1.56
--
mutation name: […] (CDR3 as printed); K5V derived by comparing it with the table's wild-type CDR3 AGPMKTSYDKVI
observed value: 0.87
--
mutation name: […] (CDR3 as printed); I12R derived by comparing it with the table's wild-type CDR3 AGPMKTSYDKVI
observed value: 1.1
--
mutation name: […] (CDR3 as printed); K5W derived by comparing it with the table's wild-type CDR3 AGPMKTSYDKVI
observed value: 0.659
--
mutation name: […] (CDR3 as printed); M4Q derived by comparing it with the table's wild-type CDR3 AGPMKTSYDKVI
observed value: 0.551
--
mutation name: […] (CDR3 as printed); A1I derived by comparing it with the table's wild-type CDR3 AGPMKTSYDKVI
observed value: 0.798
--
mutation name: […] (CDR3 as printed); I12P derived by comparing it with the table's wild-type CDR3 AGPMKTSYDKVI
observed value: 1.18
--
mutation name: […] (CDR3 as printed); M4Y derived by comparing it with the table's wild-type CDR3 AGPMKTSYDKVI
observed value: 1.15
--
mutation name: […] (CDR3 as printed); S7G derived by comparing it with the table's wild-type CDR3 AGPMKTSYDKVI
observed value: 0.911
